# test-description: Antioxidant activity assessed as inhibition of ABTS free radical scavenging activity after 10 mins by spectrophotometry relative to control
# Format: physicochemical
pIC50: −log10 of the molar value.
Record Criterion met whenever pIC50 is at 5 or higher; record Criterion not met when lower.

Would you please look over these solved cases?
Q) Is pIC50 at least 5? Consider "COc1ccc(CNc2ccc3nc(N)nc(N)c3c2)cc1"
A) Criterion met

Q) Is pIC50 at least 5? Consider "Nc1ccc2nc(N)nc(N)c2c1"
A) Criterion met

Q) Is pIC50 at least 5? Consider "COc1ccc(CN(Cc2ccc(OC)cc2)c2ccc3nc(N)nc(N)c3c2)cc1"
A) Criterion not met

---
Q) Is pIC50 at least 5? Consider "Nc1nc(N)c2cc(NCc3ccc4c(c3)OCCO4)ccc2n1"
A) Criterion met

Q) Is pIC50 at least 5? Consider "Nc1nc(N)c2cc(NCc3ccc(OC(F)(F)F)cc3)ccc2n1"
A) Criterion met

Q) Is pIC50 at least 5? Consider "COc1ccc(CNc2ccc3nc(NC(C)=O)nc(NC(C)=O)c3c2)cc1"
A) Criterion met

Q) Is pIC50 at least 5? Consider "Nc1nc(N)c2cc(N(Cc3ccc(OC(F)(F)F)cc3)Cc3ccc(OC(F)(F)F)cc3)ccc2n1"
A) Criterion not met

Q) Is pIC50 at least 5? Consider "COc1ccc(CN(Cc2ccc(OC(F)(F)F)cc2)c2ccc3nc(N)nc(N)c3c2)cc1"
A) Criterion not met

Q) Is pIC50 at least 5? Consider "CN(C)CCCOc1ccc(CNc2ccc3nc(N)nc(N)c3c2)cc1"
A) Criterion met

Origin of values: ChEMBL document CHEMBL3414531
